// provenance: patent US20210388087A1

# Lookup of reported ratio of amounts bound (Z=Y/X) keyed by entry
subject of test: T1, CD3 epsilon homodimer protein (UniProt P07766 23-126)
T1 construct: also called CD3 (CD3 epsilon)
procedure summary: SPR Biacore T200, CD3e homodimer on chip, vs unaltered GLS3000 antibody

>  <binder>
GLS3000 N28D (antibody, name in Kabat numbering, V domains shown, one-arm IgG as m2) VH: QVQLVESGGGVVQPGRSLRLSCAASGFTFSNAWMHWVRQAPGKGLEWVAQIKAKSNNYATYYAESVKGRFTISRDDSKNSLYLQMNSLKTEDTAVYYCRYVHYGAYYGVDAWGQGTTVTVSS VL: DIVMTQSPLSLPVTPGEPASISCRSSQSLVHSDRNTYLHWYQQKPGQAPRLLIYKVSNRFSGVPDRFSGSGSGTDFTLKISRVEAEDVGVYYCGQGTQVPYTFGQGTKLEIK

>  <result>
0.19

$$$$

Turning now to a further record.
Form: binder = GLS3000 L27bE (antibody, name in Kabat numbering, V domains shown, one-arm IgG as m2) VH: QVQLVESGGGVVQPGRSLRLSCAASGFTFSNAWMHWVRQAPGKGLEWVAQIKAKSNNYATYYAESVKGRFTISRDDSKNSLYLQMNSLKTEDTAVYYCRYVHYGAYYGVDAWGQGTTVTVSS VL: DIVMTQSPLSLPVTPGEPASISCRSSQSEVHSNRNTYLHWYQQKPGQAPRLLIYKVSNRFSGVPDRFSGSGSGTDFTLKISRVEAEDVGVYYCGQGTQVPYTFGQGTKLEIK ; ratio of amounts bound (Z=Y/X) = 0.17
